# system-tested: ScLsb4
# assay-comment: SPOT peptide array binding signal intensity (averaged, normalized) (arbitrary units (background-subtracted, floor 0; scale differs between SH3 domains)); higher = stronger binding of the SH3 domain to the peptide
measured-property: SPOT peptide array binding signal intensity
Give bare numbers.

Please state SPOT peptide array binding signal intensity for every binder in the list that follows.
1. VNFRRIPTGPDSPPT
2. PAPPPPPRASRPTPN
3. QRIRKIPGIPLMSVG
4. SRSKPLPLTPNSKYN

A:
[11, 394, 349, 12]

Please state SPOT peptide array binding signal intensity for every binder in the list that follows.
1. TKFRISLGLPVGAIM
2. RRASLFPRDPKRLRP

A:
[72, 4.5]
